Biological target: α-Glucosidase from Saccharomyces cerevisiae (EC 3.2.1.20) (Saccharomyces cerevisiae, UniProt P53341)
Construct: purchased Sigma-Aldrich
Sequence (P53341 whole entry): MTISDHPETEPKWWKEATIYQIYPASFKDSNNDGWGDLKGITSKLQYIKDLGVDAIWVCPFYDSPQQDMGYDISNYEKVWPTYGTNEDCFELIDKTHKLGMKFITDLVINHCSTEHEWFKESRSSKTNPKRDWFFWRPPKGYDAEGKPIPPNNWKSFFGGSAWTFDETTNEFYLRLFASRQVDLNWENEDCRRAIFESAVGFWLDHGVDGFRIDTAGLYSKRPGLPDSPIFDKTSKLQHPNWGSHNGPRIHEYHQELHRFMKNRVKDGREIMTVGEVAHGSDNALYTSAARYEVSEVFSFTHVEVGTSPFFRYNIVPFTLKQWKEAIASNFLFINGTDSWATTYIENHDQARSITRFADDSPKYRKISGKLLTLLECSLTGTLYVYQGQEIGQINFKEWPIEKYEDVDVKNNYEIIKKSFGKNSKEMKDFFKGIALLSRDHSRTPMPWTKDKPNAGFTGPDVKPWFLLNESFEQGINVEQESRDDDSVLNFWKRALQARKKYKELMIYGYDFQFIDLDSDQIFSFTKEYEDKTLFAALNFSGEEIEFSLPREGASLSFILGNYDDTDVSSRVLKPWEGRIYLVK
Experiment: biochemical
Description: […] The α-glucosidase inhibitory activity assay of coumarin-chalcone derivatives 3 (a∼v) was conducted using p-NPG as a substrate. […] Then p-NPG (final concentration 0.25 mM) was added and the absorbance change was measured by a micro-plate reader at 405 nm. […] The percentage of inhibition was obtained using the formula: Inhibition (%) = […] × 100%, where OD1 and OD0 represent the absorbance value of the experimental group and the blank group respectively. […]
measurement_label: pIC50
Lab note: report pIC50 as minus log10 of the concentration in molar units, number only.

Worked examples, 5 molecules total:
{"columns": ["molecule", "pIC50"],
 "data": [
  ["O=C(/C=C/c1ccc(F)cc1)c1cc2ccccc2oc1=O [Compound 3i]", 4.45],
  ["O=C(/C=C/c1cccc(F)c1)c1cc2ccccc2oc1=O [Compound 3h]", 4.34],
  ["O=C(/C=C/c1ccc(Br)cc1)c1cc2ccccc2oc1=O [Compound 3t]", 4.62],
  ["O=C(/C=C/c1cccc(Cl)c1)c1cc2ccccc2oc1=O [Compound 3p]", 4.28],
  ["O=C(/C=C/c1ccccc1Cl)c1cc2ccccc2oc1=O [Compound 3o]", 4.22]
]}

Give pIC50 for the following molecule: O=C(/C=C/c1cccc(Br)c1)c1cc2ccccc2oc1=O [Compound 3s]
4.45

Tell us which pIC50 value is on record for O=C(/C=C/c1ccc(Cl)cc1)c1cc2ccccc2oc1=O [Compound 3q]
4.53

Assign pIC50 to the following record: O=C(/C=C/c1ccccc1F)c1cc2ccccc2oc1=O [Compound 3g]
4.32

For the molecule O=C(/C=C/c1ccccc1Br)c1cc2ccccc2oc1=O [Compound 3r] , give its measured pIC50 value.
4.41

Tell me its pIC50 given O=C(/C=C/c1ccccc1)c1cc2ccccc2oc1=O [Compound 3a, (E)-3-cinnamoyl-2H-chromen-2-one] as the entry.
3.90

* * *

Target: α-Glucosidase from Saccharomyces cerevisiae (EC 3.2.1.20) (Saccharomyces cerevisiae)
Construct: purchased Sigma-Aldrich
Assay: α-Glucosidase inhibition kinetics (v vs. enzyme concentration, Lineweaver-Burk plots)
Type: biochemical
measurement_label: Ki (µM)
Use µM as the unit, but write only the number.

{"columns": ["item_smiles", "unit_text", "Ki"],
 "data": [
  ["O=C(/C=C/c1ccc(Cl)cc1)c1cc2ccccc2oc1=O", "µM", 16.1]
]}

Okay, now this compound:
Hello, please tell me recorded Ki for this one: `O=C(/C=C/c1ccc(Br)cc1)c1cc2ccccc2oc1=O`
11

* * *

Target: α-Glucosidase from Saccharomyces cerevisiae (EC 3.2.1.20) (Saccharomyces cerevisiae, UniProt P53341)
Construct: purchased Sigma-Aldrich
Experiment: biochemical
Conditions: p-NPG 0.25 mM, enzyme 0.1 U/ml, PBS pH 6.8, 37°C; read-out: IC50, α-glucosidase inhibitory activity
Description: […] The α-glucosidase inhibitory activity assay of coumarin-chalcone derivatives 3 (a∼v) was conducted using p-NPG as a substrate. […] Then p-NPG (final concentration 0.25 mM) was added and the absorbance change was measured by a micro-plate reader at 405 nm. […] The percentage of inhibition was obtained using the formula: Inhibition (%) = […] × 100%, where OD1 and OD0 represent the absorbance value of the experimental group and the blank group respectively. […]
measurement_label: IC50 (µM)
Express the result in µM but write the number alone.

Observe how each entry below is paired with its result.
{"columns": ["compound", "IC50, µM"],
 "data": [
  ["COc1ccc(/C=C/C(=O)c2cc3ccccc3oc2=O)cc1 [Compound 3e]", 105],
  ["O=C(/C=C/c1ccccc1C(F)(F)F)c1cc2ccccc2oc1=O [Compound 3l]", 71.5]
]}

Provide only the value of recorded IC50 for O=C(/C=C/c1cccs1)c1cc2ccccc2oc1=O [Compound 3u]
109
